Target: recombinant human IDE42-1019 (Homo sapiens)
Construct: recombinant human IDE42-1019 (R&D Systems); purchased R&D Systems
Sequence (P14735 42-1019): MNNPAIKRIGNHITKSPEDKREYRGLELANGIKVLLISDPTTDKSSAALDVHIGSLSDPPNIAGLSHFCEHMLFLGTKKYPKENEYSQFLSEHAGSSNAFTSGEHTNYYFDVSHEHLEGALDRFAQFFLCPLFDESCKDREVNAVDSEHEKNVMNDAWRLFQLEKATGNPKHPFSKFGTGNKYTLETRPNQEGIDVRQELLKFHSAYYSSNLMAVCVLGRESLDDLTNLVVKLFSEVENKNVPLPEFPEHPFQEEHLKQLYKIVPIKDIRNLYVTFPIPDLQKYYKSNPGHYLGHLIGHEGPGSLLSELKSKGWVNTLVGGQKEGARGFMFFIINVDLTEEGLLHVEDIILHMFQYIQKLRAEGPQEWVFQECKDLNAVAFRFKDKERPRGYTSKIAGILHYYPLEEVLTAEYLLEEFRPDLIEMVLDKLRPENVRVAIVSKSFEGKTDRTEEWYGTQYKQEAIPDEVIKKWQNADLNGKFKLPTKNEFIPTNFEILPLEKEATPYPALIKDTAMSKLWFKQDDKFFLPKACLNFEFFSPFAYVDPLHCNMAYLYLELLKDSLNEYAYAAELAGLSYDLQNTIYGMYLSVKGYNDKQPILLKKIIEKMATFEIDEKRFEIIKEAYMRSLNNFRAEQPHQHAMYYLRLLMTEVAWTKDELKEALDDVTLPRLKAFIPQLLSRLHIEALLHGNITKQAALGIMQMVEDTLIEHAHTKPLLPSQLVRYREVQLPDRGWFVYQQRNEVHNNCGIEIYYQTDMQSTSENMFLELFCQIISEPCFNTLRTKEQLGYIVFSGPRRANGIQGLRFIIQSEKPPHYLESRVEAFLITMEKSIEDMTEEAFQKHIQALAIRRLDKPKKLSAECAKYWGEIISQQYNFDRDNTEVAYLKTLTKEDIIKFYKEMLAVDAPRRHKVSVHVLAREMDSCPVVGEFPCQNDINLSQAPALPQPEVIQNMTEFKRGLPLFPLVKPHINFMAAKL
Assay remarks: Protease assay with fluorogenic peptide substrate Mca-[…](Dnp)-OH
Assay type: biochemical
Settings: fluorogenic peptide Mca-RPPGFSAFK(Dnp)-OH; apparent IC50 for compounds with submaximal inhibition; read-out: IC50 (μM) Proteolysis
# thresholds on IC50 define classes: L: < 0.9 µM; M: ≥ 0.9 µM and < 3 µM; H: ≥ 3 µM

Category of Cc1cc(F)ccc1-c1ccc([C@@H]2[C@@H](CO)N3CCCCN(S(=O)(=O)c4ccccc4C)C[C@@H]23)cc1 [JP-39] , please.
L

Can you check Cc1cccc(-c2ccc(C3CCN(C(=O)c4cccc(OCc5ccccc5)c4)CC3)cc2)c1C [A22] next?
M

Can you check COC[C@H]1[C@H](c2ccc(C#Cc3ccccc3F)cc2)[C@@H]2CN(C(=O)NC(C)C)CCCCN12 [compound 304] next?
M

Can you check Cc1ccccc1S(=O)(=O)N1C/C=C\CN2C(C1)[C@H](c1ccc(-c3cccc(Cl)c3C)cc1)[C@H]2CO (some centres unmarked) [JP-28] next?
L

Can you check COc1ccccc1-c1ccc(C2C3CN(C(=O)c4cccnc4)CC2N3)cc1 (centres unmarked) [C4] next?
H

Can you check Cc1cccc(-c2ccc(C3CCN(S(=O)(=O)c4ccc5c(c4)Cc4ccccc4-5)CC3)cc2)c1C [A08] next?
H

Can you check COc1ccccc1-c1ccc([C@H]2[C@@H](CO)N3CCCCN(C(=O)NC4CCCC4)C[C@H]23)cc1 [compound 439] next?
M

Can you check Cc1ccccc1-c1ccc([C@H]2[C@@H](CO)N3CCCCN(C(=O)c4cccnc4)C[C@@H]23)cc1 [compound 712] next?
H

Can you check Cc1cc2c(cc1S(=O)(=O)N1CCCCN3[C@H](CO)[C@@H](c4ccc(-c5cccc(C)c5C)cc4)[C@@H]3C1)OCC(=O)N2 [JP-S13] next?
L

Can you check Cc1ccccc1-c1ccc([C@@H]2[C@H]3CN(C(=O)Cc4ccccn4)CC(=O)N3[C@H]2CO)cc1 [compound 140] next?
M

Can you check Cc1ccccc1S(=O)(=O)N1CCCCN2[C@H](CO)[C@@H](c3ccc(-c4cccc(C)c4C)cc3)[C@@H]2C1 [K9] next?
L

Can you check Cc1ccccc1-c1ccc([C@@H]2[C@H](CO)N3C(=O)CN(C(=O)NC4CCCC4)C[C@@H]23)cc1 [compound 1576] next?
M

Can you check COc1ccccc1-c1ccc([C@H]2[C@@H](CO)N3CCCCN(C(=O)c4cccnc4)C[C@H]23)cc1 [compound 983] next?
H

Can you check Cc1cccc(-c2ccc(C3CCN(S(=O)(=O)c4cccc(Oc5ccc(F)cc5)c4)CC3)cc2)c1C [A05] next?
H

Can you check Cc1cccc(-c2ccc(C3CCN(Cc4ccc(OCc5ccccc5)cc4)CC3)cc2)c1C [A34] next?
H

Can you check Cc1ccccc1S(=O)(=O)N1CCCCN2[C@H](CO)[C@@H](c3ccc(-c4ccc(F)c(F)c4C)cc3)[C@@H]2C1 [K24] next?
L

Can you check Cc1ccccc1-c1ccc([C@@H]2[C@@H](CO)N3C(=O)CN(C(=O)Cc4ccccn4)C[C@@H]23)cc1 [compound 081] next?
M

Can you check Cc1cccc(-c2ccc(C3CCN(C(=O)c4ccccc4Oc4ccccc4)CC3)cc2)c1C [A23] next?
H

Can you check Cc1cccc(-c2ccc([C@@H]3[C@@H](CO)N4CCCCN(CCC(F)(F)F)C[C@@H]34)cc2)c1 [compound 073] next?
H

Can you check Cc1cccc(-c2ccc([C@@H]3[C@@H](CO)N4C(=O)CN(C(=O)Cc5ccccn5)C[C@@H]34)cc2)c1 [compound 348] next?
H

Can you check COC(=O)c1ccc(S(=O)(=O)N2CCCCN3C(C2)[C@H](c2ccc(-c4cccc(C)c4C)cc2)[C@H]3CO)n1C (some centres unmarked) [JP-S27] next?
H

Can you check CCn1ncc(S(=O)(=O)N2C/C=C\CN3C(C2)[C@H](c2ccc(-c4cccc(C)c4C)cc2)[C@H]3CO)c1C (some centres unmarked) [JP-S19] next?
L

Can you check Cc1cccc(-c2ccc([C@H]3C4CN(S(=O)(=O)c5cnc(C)n5C)C/C=C\CN4[C@@H]3CO)cc2)c1C (some centres unmarked) [JP-S18] next?
L

Can you check Cc1ccccc1S(=O)(=O)N1CCCCN2[C@H](CO)[C@@H](c3ccc(-c4cccc(F)c4)cc3)[C@@H]2C1 [K11] next?
M

Can you check Cc1cccc(-c2ccc(C3CCN(S(=O)(=O)c4ccc5c(c4)CCC(=O)N5)CC3)cc2)c1C [A10] next?
H
